Origin of values: ChEMBL document CHEMBL1159380

Tested on: HL-60
experimentalDetails: Antioxidant activity against TPA-induced ROS production in human HL60 cells by 2',7'-dichlorodihydrofluorescein diacetate cellular-based assay
Assay type: functional, cell-based
protocolConditions: Homo sapiens, HL-60

# compound, IC50
data = [
    ("OCc1cc(Br)c(O)c(O)c1Cc1ccc(O)c(Br)c1 [AVRAINVILLEOL]", "6.1 µM"),
    ("CC(C)=CCC[C@H](C)c1ccc(C)cc1O", "209 µM"),
    ("COc1cc2ccnc3c2c(c1OC)NC=C3 [AAPTAMINE]", "> 55 µM"),
    ("CC1(C)CCC[C@]2(C)[C@H]3C=C4C=C(O)C(=O)C=C4O[C@@]3(C)CC[C@@H]12 [PUUPEHENONE]", "27 µM"),
]

###

System: HL-60
experimentalDetails: Antioxidant activity against TPA-induced ROS production in human HL60 cells by 2',7'-dichlorodihydrofluorescein diacetate cellular-based assay
Type: functional, cell-based
protocolConditions: Homo sapiens, HL-60
Reported IC50 values for the following compounds.

# compound, inequalitySign, IC50 [µM]
records = [
    ("CC(C)=CCC/C(C)=C/Cc1cc(O)c(Br)cc1O [CYMOPOL]", "=", 4),
    ("CC(=O)OC/C=C(\\OC(C)=O)C(C)=O", "=", 49),
    ("COc1cc2ccnc3c2c(c1O)N(C)C=C3 [ISOAAPTAMINE]", ">", 55),
    ("O=C1C(C2=C3c4ccccc4NC3/C(=C\\c3ccc(O)cc3)C2=O)=C2C(=Nc3ccccc32)/C1=C\\c1ccc(O)cc1 (centres undefined) [SCYTONEMIN]", ">", 23),
    ("CCC(C)CC(C(=O)N/C=C\\c1c[nH]c2ccccc12)N(C)Cc1ccc(O)cc1 (centres undefined) [ARAGILAMIDE]", "=", 11),
    ("O=C1O[C@H]([C@@H](O)CO)C(O)=C1O [ASCORBIC ACID]", "=", 9.7),
    ("COc1c(OC)c(O)c2c(=O)c(C)c(/C=C/c3cc(O)cc(O)c3)oc2c1OC [HORMOTHAMNIONE]", ">", 31),
    ("C/C(=C\\Cc1cc(O)c(Br)cc1O)CCCC(C)(C)O", ">", 14.6),
    ("COc1c(OC)c(O)c2c(=O)c(C)c(/C=C/c3cc(OC(C)=O)cc(OC(C)=O)c3)oc2c1OC [HORMOTHAMNIONE DIACETATE]", "=", 18.3),
]
